All figures here come from patent US12486300B2.

Consider the following compounds; for each one, report its PC:TC32 (cellular selectivity).
Tested on: TC32 Ewing sarcoma cells, expressing EWS-FLI1
Assay: Growth inhibition assay, TC32 cells
Format: cell-based
Conditions: ratio of GI50 PC3 to TC32
When you answer, write just the number.

Q. Name the recorded PC:TC32 (cellular selectivity) for COC(=O)C(Cc1ccccc1)NC(=O)CON=C(C(O)C(C)O)C(OC)C1Cc2cc3cc(OC4CC(OC5CC(O)C(O)C(C)O5)C(O)C(C)O4)c(C)c(O)c3c(O)c2C(=O)C1OC1CC(OC2CC(OC3CC(C)(O)C(O)C(C)O3)C(O)C(C)O2)C(O)C(C)O1 (stereo not shown) [MTM (30)] .
A. 2.08

Q. Name the recorded PC:TC32 (cellular selectivity) for COC(C(=NOCC(=O)Nc1ccc2scnc2c1)C(O)C(C)O)C1Cc2cc3cc(OC4CC(OC5CC(O)C(O)C(C)O5)C(O)C(C)O4)c(C)c(O)c3c(O)c2C(=O)C1OC1CC(OC2CC(OC3CC(C)(O)C(O)C(C)O3)C(O)C(C)O2)C(O)C(C)O1 (stereo not shown) [MTM (69)] .
A. 11.4

Q. Name the recorded PC:TC32 (cellular selectivity) for COC(C(=NOCC(=O)Nc1ccc2[nH]cnc2c1)C(O)C(C)O)C1Cc2cc3cc(OC4CC(OC5CC(O)C(O)C(C)O5)C(O)C(C)O4)c(C)c(O)c3c(O)c2C(=O)C1OC1CC(OC2CC(OC3CC(C)(O)C(O)C(C)O3)C(O)C(C)O2)C(O)C(C)O1 (stereo not shown) [MTM (71)] .
A. 3.2

Q. Name the recorded PC:TC32 (cellular selectivity) for COC(C(=NOCC(C)C)C(O)C(C)O)C1Cc2cc3cc(OC4CC(OC5CC(O)C(O)C(C)O5)C(O)C(C)O4)c(C)c(O)c3c(O)c2C(=O)C1OC1CC(OC2CC(OC3CC(C)(O)C(O)C(C)O3)C(O)C(C)O2)C(O)C(C)O1 (stereo not shown) [MTM (7E)] .
A. 1.04

====

Test system: TC32 Ewing sarcoma cells, expressing EWS-FLI1
Test: Growth inhibition assay, TC32 cells
Type: cell-based
Conditions: ratio of GI50 PC3 to TC32
Respond with YES for PC:TC32 (cellular selectivity) values of 4 and above, NO for values below.

Q. Threshold query (PC:TC32 (cellular selectivity) >= 4) on COC(C(=NOCC(=O)NCCc1ccccc1)C(O)C(C)O)C1Cc2cc3cc(OC4CC(OC5CC(O)C(O)C(C)O5)C(O)C(C)O4)c(C)c(O)c3c(O)c2C(=O)C1OC1CC(OC2CC(OC3CC(C)(O)C(O)C(C)O3)C(O)C(C)O2)C(O)C(C)O1 (stereo not shown)
A. NO

Q. Threshold query (PC:TC32 (cellular selectivity) >= 4) on COC(C(=NOCC(C)C)C(O)C(C)O)C1Cc2cc3cc(OC4CC(OC5CC(O)C(O)C(C)O5)C(O)C(C)O4)c(C)c(O)c3c(O)c2C(=O)C1OC1CC(OC2CC(OC3CC(C)(O)C(O)C(C)O3)C(O)C(C)O2)C(O)C(C)O1 (stereo not shown) [MTM (7Z)]
A. NO

Q. Threshold query (PC:TC32 (cellular selectivity) >= 4) on COC(C(=NOCC(=O)Nc1cccc2cc[nH]c12)C(O)C(C)O)C1Cc2cc3cc(OC4CC(OC5CC(O)C(O)C(C)O5)C(O)C(C)O4)c(C)c(O)c3c(O)c2C(=O)C1OC1CC(OC2CC(OC3CC(C)(O)C(O)C(C)O3)C(O)C(C)O2)C(O)C(C)O1 (stereo not shown)
A. YES

Q. Threshold query (PC:TC32 (cellular selectivity) >= 4) on COC(C(=NOCCOc1ccc(C(F)(F)F)cc1)C(O)C(C)O)C1Cc2cc3cc(OC4CC(OC5CC(O)C(O)C(C)O5)C(O)C(C)O4)c(C)c(O)c3c(O)c2C(=O)C1OC1CC(OC2CC(OC3CC(C)(O)C(O)C(C)O3)C(O)C(C)O2)C(O)C(C)O1 (stereo not shown)
A. YES

Q. Threshold query (PC:TC32 (cellular selectivity) >= 4) on COC(C(=NOCC(=O)NCc1ccc2cc[nH]c2c1)C(O)C(C)O)C1Cc2cc3cc(OC4CC(OC5CC(O)C(O)C(C)O5)C(O)C(C)O4)c(C)c(O)c3c(O)c2C(=O)C1OC1CC(OC2CC(OC3CC(C)(O)C(O)C(C)O3)C(O)C(C)O2)C(O)C(C)O1 (stereo not shown)
A. YES

Q. Threshold query (PC:TC32 (cellular selectivity) >= 4) on CO[C@H](/C(=N/OCC(=O)N[C@H](CO)Cc1c[nH]c2ccccc12)[C@@H](O)[C@@H](C)O)[C@@H]1Cc2cc3cc(O[C@H]4C[C@@H](O[C@H]5C[C@@H](O)[C@H](O)C(C)O5)[C@H](O)C(C)O4)c(C)c(O)c3c(O)c2C(=O)[C@H]1O[C@H]1C[C@@H](O[C@H]2C[C@@H](O[C@H]3C[C@](C)(O)[C@H](O)C(C)O3)[C@H](O)C(C)O2)[C@H](O)C(C)O1 (stereo partly shown)
A. YES

====

Tested on: TC32 Ewing sarcoma cells, expressing EWS-FLI1
Assay: Growth inhibition assay, TC32 cells
Type: cell-based
Details: ratio of GI50 PC3 to TC32
Consider the following molecules; for each one, report its PC:TC32 (cellular selectivity).
When you answer, write just the number.

Q. Name the recorded PC:TC32 (cellular selectivity) for COC(C(=NOCC(=O)Nc1ccc2[nH]c(C)cc2c1)C(O)C(C)O)C1Cc2cc3cc(OC4CC(OC5CC(O)C(O)C(C)O5)C(O)C(C)O4)c(C)c(O)c3c(O)c2C(=O)C1OC1CC(OC2CC(OC3CC(C)(O)C(O)C(C)O3)C(O)C(C)O2)C(O)C(C)O1 (stereo not shown) [MTM (72)] .
A. 20.9

Q. Name the recorded PC:TC32 (cellular selectivity) for COC(C(=NOC[Si](C)(C)C)C(O)C(C)O)C1Cc2cc3cc(OC4CC(OC5CC(O)C(O)C(C)O5)C(O)C(C)O4)c(C)c(O)c3c(O)c2C(=O)C1OC1CC(OC2CC(OC3CC(C)(O)C(O)C(C)O3)C(O)C(C)O2)C(O)C(C)O1 (stereo not shown) [MTM (5Z)] .
A. 0.68

Q. Name the recorded PC:TC32 (cellular selectivity) for COC(=O)C(C)NC(=O)C(Cc1c[nH]c2ccccc12)NC(=O)CON=C(C(O)C(C)O)C(OC)C1Cc2cc3cc(OC4CC(OC5CC(O)C(O)C(C)O5)C(O)C(C)O4)c(C)c(O)c3c(O)c2C(=O)C1OC1CC(OC2CC(OC3CC(C)(O)C(O)C(C)O3)C(O)C(C)O2)C(O)C(C)O1 (stereo not shown) [MTM (52)] .
A. 6.6

Q. Name the recorded PC:TC32 (cellular selectivity) for COC(=O)C(Cc1c[nH]c2ccccc12)NC(=O)C(Cc1c[nH]c2ccccc12)NC(=O)CON=C(C(O)C(C)O)C(OC)C1Cc2cc3cc(OC4CC(OC5CC(O)C(O)C(C)O5)C(O)C(C)O4)c(C)c(O)c3c(O)c2C(=O)C1OC1CC(OC2CC(OC3CC(C)(O)C(O)C(C)O3)C(O)C(C)O2)C(O)C(C)O1 (stereo not shown) [MTM (24)] .
A. 6.9

Q. Name the recorded PC:TC32 (cellular selectivity) for COC(C(=NOCC(=O)Nc1ccc2cnccc2c1)C(O)C(C)O)C1Cc2cc3cc(OC4CC(OC5CC(O)C(O)C(C)O5)C(O)C(C)O4)c(C)c(O)c3c(O)c2C(=O)C1OC1CC(OC2CC(OC3CC(C)(O)C(O)C(C)O3)C(O)C(C)O2)C(O)C(C)O1 (stereo not shown) [MTM (75)] .
A. 118

Q. Name the recorded PC:TC32 (cellular selectivity) for COC(C(=NOCC(=O)Nc1cccc2[nH]ccc12)C(O)C(C)O)C1Cc2cc3cc(OC4CC(OC5CC(O)C(O)C(C)O5)C(O)C(C)O4)c(C)c(O)c3c(O)c2C(=O)C1OC1CC(OC2CC(OC3CC(C)(O)C(O)C(C)O3)C(O)C(C)O2)C(O)C(C)O1 (stereo not shown) [MTM (68)] .
A. 4.5

Q. Name the recorded PC:TC32 (cellular selectivity) for COC(=O)C(Cc1ccccc1)NC(=O)C(Cc1c[nH]c2ccccc12)NC(=O)CON=C(C(O)C(C)O)C(OC)C1Cc2cc3cc(OC4CC(OC5CC(O)C(O)C(C)O5)C(O)C(C)O4)c(C)c(O)c3c(O)c2C(=O)C1OC1CC(OC2CC(OC3CC(C)(O)C(O)C(C)O3)C(O)C(C)O2)C(O)C(C)O1 (stereo not shown) [MTM (51)] .
A. 2.2

====

Tested on: TC32 Ewing sarcoma cells, expressing EWS-FLI1
Test: Growth inhibition assay, TC32 cells
Assay type: cell-based
Details: ratio of GI50 PC3 to TC32
Respond with fulfilled for PC:TC32 (cellular selectivity) values of 7 and above, not fulfilled for values below.

Q. Threshold query (PC:TC32 (cellular selectivity) >= 7) on COC(C(=NOCCc1c[nH]c2ccccc12)C(O)C(C)O)C1Cc2cc3cc(OC4CC(OC5CC(O)C(O)C(C)O5)C(O)C(C)O4)c(C)c(O)c3c(O)c2C(=O)C1OC1CC(OC2CC(OC3CC(C)(O)C(O)C(C)O3)C(O)C(C)O2)C(O)C(C)O1 (centres unmarked) [MTM (19E)]
A. not fulfilled

Q. Threshold query (PC:TC32 (cellular selectivity) >= 7) on COC(C(=NOCc1ccc([N+](=O)[O-])cc1)C(O)C(C)O)C1Cc2cc3cc(OC4CC(OC5CC(O)C(O)C(C)O5)C(O)C(C)O4)c(C)c(O)c3c(O)c2C(=O)C1OC1CC(OC2CC(OC3CC(C)(O)C(O)C(C)O3)C(O)C(C)O2)C(O)C(C)O1 (centres unmarked)
A. not fulfilled

Q. Threshold query (PC:TC32 (cellular selectivity) >= 7) on COC(C(=NOCC(=O)Nc1ccc2[nH]ccc2c1)C(O)C(C)O)C1Cc2cc3cc(OC4CC(OC5CC(O)C(O)C(C)O5)C(O)C(C)O4)c(C)c(O)c3c(O)c2C(=O)C1OC1CC(OC2CC(OC3CC(C)(O)C(O)C(C)O3)C(O)C(C)O2)C(O)C(C)O1 (centres unmarked)
A. fulfilled

Q. Threshold query (PC:TC32 (cellular selectivity) >= 7) on COC(=O)C(Cc1ccccc1)NC(=O)C(Cc1ccccc1)NC(=O)CON=C(C(O)C(C)O)C(OC)C1Cc2cc3cc(OC4CC(OC5CC(O)C(O)C(C)O5)C(O)C(C)O4)c(C)c(O)c3c(O)c2C(=O)C1OC1CC(OC2CC(OC3CC(C)(O)C(O)C(C)O3)C(O)C(C)O2)C(O)C(C)O1 (centres unmarked)
A. fulfilled

Q. Threshold query (PC:TC32 (cellular selectivity) >= 7) on COc1ccc(CON=C(C(O)C(C)O)C(OC)C2Cc3cc4cc(OC5CC(OC6CC(O)C(O)C(C)O6)C(O)C(C)O5)c(C)c(O)c4c(O)c3C(=O)C2OC2CC(OC3CC(OC4CC(C)(O)C(O)C(C)O4)C(O)C(C)O3)C(O)C(C)O2)cc1 (centres unmarked) [MTM (14E)]
A. not fulfilled

Q. Threshold query (PC:TC32 (cellular selectivity) >= 7) on C#CCON=C(C(O)C(C)O)C(OC)C1Cc2cc3cc(OC4CC(OC5CC(O)C(O)C(C)O5)C(O)C(C)O4)c(C)c(O)c3c(O)c2C(=O)C1OC1CC(OC2CC(OC3CC(C)(O)C(O)C(C)O3)C(O)C(C)O2)C(O)C(C)O1 (centres unmarked) [MTM (17Z)]
A. not fulfilled
